# Experiment Notes: Nuclear factor erythroid 2-related factor 2/antioxidant responsive element (Nrf2/ARE) small molecule agonists: qHTS cell viability counter screen in human keratinocytes (AID 1919968); further: nearly all actives have a fitted effect of over 55% in size
# Condition Details: KeratinoSens HaCaT ARE cells viability, CellTiter-Fluor, 24 h; series mostly up to 92.4 µM
Results filed as inconclusive are left out. Active and inactive are the calls of the source. The call rests on the fitted dose curve; in most records, active means well fitted cell-killing curve with a large enough effect in the repeat runs; inconclusive means weak or mixed curves, or effect the other way; inactive means flat fitted curve, though single readings scatter.
Experimental Endpoint: outcome

INSERT INTO results (compound, meas_value) VALUES
  ('CCCCCCC=O', 'inactive'),
  ('CCCCC(CC)C(=O)O (centres undefined)', 'inactive'),
  ('OCc1cccnc1', 'inactive'),
  ('CCCCCCCCOc1ccc(C(=O)c2ccccc2)c(O)c1', 'inactive'),
  ('CCCCCCCCCCCCCCCO', 'inactive'),
  ('Cc1ccc([N+](=O)[O-])cc1N', 'inactive'),
  ('OCCCc1ccccc1', 'inactive'),
  ('c1ccc2c(c1)ccc1ccccc12', 'inactive');

[ask] Look at this compound and give its reported outcome. CCN1CCCC1=O
[reply] inactive

[ask] I would be grateful if you could share the reported outcome for O=C(O)CS .
[reply] inactive

[ask] Field request: outcome | item: Cn1c(=O)c2[nH]cnc2n(C)c1=O
[reply] inactive

====

# Target Entity: Beta-2 adrenergic receptor (Homo sapiens)
# Experiment Notes: Adrenergic beta2 receptor (ADRB2) small molecule antagonists, cell-based qHTS assay (AID 1963592); further: nearly all actives have a fitted effect of over 50% in size
# Condition Details: CHO-ADRB2 cells, isoproterenol-stimulated cAMP HTRF ratio, 0.5 h; series mostly up to 92.4 µM
Results filed as inconclusive are left out. Calls of active or inactive are those of the source. Calls come from the whole dose curve.
Tick one outcome: true (1) for active, false (0) for inactive

[ask] Hi, sorry to bother you, what did the test record for CS(=O)(=O)OCCCCOS(C)(=O)=O ?
[reply] false (0)

[ask] Name the outcome recorded for Oc1ccc(Cl)cc1Cc1cc(Cl)ccc1O in the assay.
[reply] true (1)

[ask] Give the logged outcome of this assay for the following molecule: O=S1(=O)CCCO1
[reply] false (0)

[ask] Outcome? C=C(C)C(=O)O[C@H]1C[C@@H]2CC[C@@]1(C)C2(C)C
[reply] false (0)

[ask] // return assay outcome for CNNCc1ccc(C(=O)NC(C)C)cc1
[reply] false (0)

[ask] How did this test come out for Cc1cc(C(C)(C)C)c(O)c(C(C)(C)C)c1 ?
[reply] false (0)

[ask] Per the records of this test, what outcome belongs to CC1=NN(c2ccccc2)C(=O)C1 ?
[reply] false (0)

[ask] Can you look up the reported call for O=C1OC2(c3ccccc31)c1cc(I)c(O)c(I)c1Oc1c2cc(I)c(O)c1I for me?
[reply] true (1)

[ask] Each molecule tested received a call. Report the one for CCCCCC1C(=O)CCC1CC(=O)OC (stereo not drawn) .
[reply] false (0)

[ask] What outcome does the record of this test show for CC1(C)S[C@@H]2[C@H](NC(=O)[C@H](N)c3ccccc3)C(=O)N2[C@H]1C(=O)O ?
[reply] false (0)

[ask] Per the assay record, what outcome was assigned to CCCCC1C(=O)N(c2ccccc2)N(c2ccccc2)C1=O ?
[reply] false (0)

[ask] How was COc1ccc(CN(CCN(C)C)c2ccccn2)cc1 classified in this test?
[reply] false (0)

[ask] Please let me know the test result on file for NC(N)=NC(=O)c1nc(Cl)c(N)nc1N .
[reply] false (0)

# credit: PubChem BioAssay (Tox21)
